Target: C-terminal His6-tagged, recombinant, human JAK2, amino acids 808-end (Homo sapiens, UniProt O60674)
Construct: His6 (C); purchased Upstate Biotechnology MA; host or cells: baculovirus in Sf21 cells
Sequence (O60674 808-1132 limits assumed): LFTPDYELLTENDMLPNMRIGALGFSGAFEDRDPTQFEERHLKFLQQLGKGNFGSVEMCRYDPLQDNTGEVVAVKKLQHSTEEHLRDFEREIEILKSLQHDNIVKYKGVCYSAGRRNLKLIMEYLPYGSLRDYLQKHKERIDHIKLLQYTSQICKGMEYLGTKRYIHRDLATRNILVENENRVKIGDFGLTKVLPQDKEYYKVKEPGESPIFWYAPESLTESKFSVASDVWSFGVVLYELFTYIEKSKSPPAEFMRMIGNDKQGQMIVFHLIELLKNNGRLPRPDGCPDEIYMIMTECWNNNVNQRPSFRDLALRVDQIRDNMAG
Assay: JAK2 kinase Alphascreen assay (Method 1)
Format: biochemical
Conditions: Alphascreen, 150 pM JAK2 enzyme, 5 mM ATP, 80 nM Tyk2 peptide, 60 minutes room temperature; read-out: IC50 Assay (Method 1)
pIC50: −log10 of the molar value.
Form field: pIC50 (one value per entry).

{"columns": ["COMPOUND", "OPERATOR_SYMBOL", "pIC50"],
 "data": [
  ["C[C@H](Nc1nc(Nc2cn(C)cn2)c2[nH]ccc2n1)c1ncc(F)cn1 [Example 6]", ">", 8.52],
  ["CC(Nc1nc(Nc2cn(C)cn2)c2ccc(N3CCOCC3)nc2n1)c1ncc(F)cc1F (single isomer, unassigned) [Example 40(a)]", "=", 6.31],
  ["COCC(Nc1nc(Nc2cn(C)cn2)c2cnn(C)c2n1)c1ncc(F)cc1F (single isomer, unassigned) [Example 13(a)]", "=", 5.49],
  ["COCC(Nc1nc(Nc2cn(C)cn2)c2cnn(C)c2n1)c1ncc(F)cc1F (single isomer, unassigned) [Example 13(b)]", ">", 8.52],
  ["CC(Nc1nc2c(c(Nc3cn(C)cn3)n1)CNC2)c1ncc(F)cn1 (single isomer, unassigned) [Example 18(a)]", "=", 5.37],
  ["CC(Nc1nc(Nc2cn(C)cn2)c2ccncc2n1)c1ncc(F)cc1F (single isomer, unassigned) [Example 43(b)]", "=", 5.93],
  ["CC(Nc1nc(Nc2cn(C)cn2)c2cnn(C)c2n1)c1ncc(F)cc1F (single isomer, unassigned) [Example 14(a)]", "=", 5.27],
  ["CC(Nc1nc(Nc2cn(C)cn2)c2ccsc2n1)c1ncc(F)cn1 (single isomer, unassigned) [Example 1(b)]", ">", 8.52],
  ["CC(Nc1nc(Nc2cn(C)cn2)c2ccccc2n1)c1ncc(F)cn1 (single isomer, unassigned) [Example 45(a)]", "=", 7.19],
  ["CC(Nc1nc2c(c(Nc3cn(C)cn3)n1)CCC2)c1ncc(F)cn1 (single isomer, unassigned) [Example 8(a)]", "=", 4.70],
  ["COc1ccc2nc(NC(C)c3ncc(F)cc3F)nc(Nc3cn(C)cn3)c2c1 (racemic) [Example 29]", "=", 6.30],
  ["CC(Nc1nc(Nc2cn(C)cn2)c2cnn(C)c2n1)c1ncc(F)cc1F (single isomer, unassigned) [Example 14(b)]", ">", 8.52],
  ["Cc1nc2c(Nc3cn(C)cn3)nc(NC(C)c3ncc(F)cn3)nc2s1 (single isomer, unassigned) [Example 7(a)]", "=", 6.24],
  ["C[C@H](Nc1nc(Nc2cn(C)cn2)c2cn[nH]c2n1)c1ncc(F)cn1 [Example 46]", "=", 7.68]
]}

These measurements were taken from patent US20110201628A1.
